Molecular target: T1, recombinant human LAG3 expressed with a C-terminal mouse IgG2a mFc tag (human)
T1 construct: Called dimeric; also called hLAG3-mFc; hLAG3 dimer
T1 chain: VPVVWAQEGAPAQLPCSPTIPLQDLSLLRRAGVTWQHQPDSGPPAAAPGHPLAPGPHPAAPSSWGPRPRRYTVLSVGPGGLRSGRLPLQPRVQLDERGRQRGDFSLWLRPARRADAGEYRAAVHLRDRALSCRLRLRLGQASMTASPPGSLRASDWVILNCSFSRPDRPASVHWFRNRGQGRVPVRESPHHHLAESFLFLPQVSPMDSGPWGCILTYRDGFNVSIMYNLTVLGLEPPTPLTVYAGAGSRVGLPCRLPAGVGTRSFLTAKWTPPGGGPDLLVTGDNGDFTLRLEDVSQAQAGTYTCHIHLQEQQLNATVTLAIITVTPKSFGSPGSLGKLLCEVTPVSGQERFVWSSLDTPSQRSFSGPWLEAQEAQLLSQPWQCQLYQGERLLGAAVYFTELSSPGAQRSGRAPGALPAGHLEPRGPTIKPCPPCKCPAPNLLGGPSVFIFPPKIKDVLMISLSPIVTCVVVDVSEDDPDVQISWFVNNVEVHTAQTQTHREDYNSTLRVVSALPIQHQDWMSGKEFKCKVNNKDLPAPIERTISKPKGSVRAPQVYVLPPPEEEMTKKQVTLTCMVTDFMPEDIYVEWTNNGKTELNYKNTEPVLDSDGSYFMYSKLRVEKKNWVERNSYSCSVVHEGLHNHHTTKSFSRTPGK
Assay: SPR, mAb captured, 37 C
List of t1/2 values.
REPORTED PROPERTY: t1/2 (min)

binder="H4H15479P (antibody, human IgG4, V domains shown) VH: QVQLQQWGAGLLNPSETLSLTCAVYGGAFSDYYWNWIRQPPGKGLEWIGEINHRGSTNYNPSLKSRVTISVDTSKNQFSLRMSSVTAADAAVYYCARGEDYDIWNGYYQEKWGQGTLVTVSS VL: EIVLTQSPATLSLSPGERATLSCRASQSISTYLAWYQQKPGQAPRLLIYDASKRATGIPARFSGSGSGTDFTLTISSLEPEDFVVYYCHQRSNWPLTFGGGTKVEIK" inequality_symbol=≥ recorded_measurement=1160
binder="H4H15483P (antibody, human IgG4, V domains shown, H4H = human IgG4 Fc with S108P hinge mutation) VH: QVQLQQWGAGLLPPSETLSLICAVYGGSFSGYYWSWIRQPPGKGLEWIGEINHRGSTNYNPSLKSRATISVDTSKNQFSLKLSSVTAADTAVYYCSRGEDYYDSSGYSYYFDYWGQGTLVTVSS VL: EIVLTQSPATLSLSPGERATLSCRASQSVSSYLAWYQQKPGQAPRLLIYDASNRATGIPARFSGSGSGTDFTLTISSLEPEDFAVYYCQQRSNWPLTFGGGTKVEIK" inequality_symbol== recorded_measurement=38.8
